# Tested on: T-380 tumors
# Measurement description: Hapten biodistribution, premix protocol with bifunctional antibody ECH037.2
# Type: in vivo, nude mice
# Run parameters: 48 hrs.; premix protocol (Table VI)
Value kind: Percent Injected Dose in Feces (Percent Injected Dose)

Worked examples follow.
# Compound, Value kind, Observed measurement
rows = [
    ("O=C(O)CN(CC(=O)O)CC(Cc1ccc(NC(=S)NCCO)cc1)N(CC(=O)O)CC(=O)O (stereo not shown)", "Percent Injected Dose in Feces", 7.9),
    ("CC(=O)NC(CCCCNC(=S)Nc1ccc(CC(CN(CC(=O)O)CC(=O)O)N(CC(=O)O)CC(=O)O)cc1)C(N)=O (stereo not shown)", "Percent Injected Dose in Feces", 13.8),
]

I = NC(=S)Nc1ccc(CC(CN(CC(=O)O)CC(=O)O)N(CC(=O)O)CC(=O)O)cc1 (stereo not shown)
II = O=C(O)CCCNC(=S)Nc1ccc(CC(CN(CC(=O)O)CC(=O)O)N(CC(=O)O)CC(=O)O)cc1 (stereo not shown)
*Q* Lab notebook, comparison: I versus II , higher Percent Injected Dose in Feces goes to which? Indicate your choice by writing its label.
*A* II

----------
# Tested on: T-380 tumors
# Measurement description: Hapten biodistribution, premix protocol with bifunctional antibody ECH037.2
# Type: in vivo, nude mice
# Run parameters: 24 hours; premix with 20 µg ECH037.2; 111In-labeled hapten i.v.
# Description: Two protocols were used for examining the biodistribution of the derivatized haptens in the presence of the bifunctional antibody ECH037.2. In a premix protocol, ECH037.2 and the derivatized hapten were combined prior to injection in the animals. […] Relative radioactive content of each organ was expressed as a percentage of injected dose per organ. […]
Value kind: % DOSE PER GRAM, BLOOD (% DOSE PER GRAM)

Worked examples follow.
# Molecule, Observed measurement
records = [
    ("CCNC(=S)Nc1ccc(CC(CN(CC(=O)O)CC(=O)O)N(CC(=O)O)CC(=O)O)cc1 (stereo not shown)", 10.4),
    ("O=C(O)CCNC(=S)Nc1ccc(CC(CN(CC(=O)O)CC(=O)O)N(CC(=O)O)CC(=O)O)cc1 (stereo not shown)", 12.2),
]

1 = NC(=S)Nc1ccc(CC(CN(CC(=O)O)CC(=O)O)N(CC(=O)O)CC(=O)O)cc1 (stereo not shown)
2 = O=C(O)CCCC(=O)NCCNC(=S)Nc1ccc(CC(CN(CC(=O)O)CC(=O)O)N(CC(=O)O)CC(=O)O)cc1 (stereo not shown)
*Q* Lab notebook, comparison: 1 versus 2 , higher % DOSE PER GRAM, BLOOD goes to which? Indicate your choice by writing its label.
*A* 2
(2: 13.0 % DOSE PER GRAM, 1: 8.0 % DOSE PER GRAM)

----------
Collected URINE values appear next to each entry.
# Test system: T-380 tumors
# Measurement description: Hapten biodistribution, premix protocol with bifunctional antibody ECH037.2
# Assay type: in vivo, nude mice
# Run parameters: 24 hours; premix with 20 µg ECH037.2
# Text: Two protocols were used for examining the biodistribution of the derivatized haptens in the presence of the bifunctional antibody ECH037.2. In a premix protocol, ECH037.2 and the derivatized hapten were combined prior to injection in the animals. […] Relative radioactive content of each organ was expressed as a percentage of injected dose per organ. […]

Worked examples follow.
# Compound, Observed measurement
data = [
    ("O=C(O)CCCC(=O)NCCNC(=S)Nc1ccc(CC(CN(CC(=O)O)CC(=O)O)N(CC(=O)O)CC(=O)O)cc1 (centres unmarked)", "14.2% of total injected dose"),
    ("O=C(O)CN(CC(=O)O)CC(Cc1ccc(NC(=S)Nc2ccccc2)cc1)N(CC(=O)O)CC(=O)O (centres unmarked)", "20.3% of total injected dose"),
    ("NCCNC(=S)Nc1ccc(CC(CN(CC(=O)O)CC(=O)O)N(CC(=O)O)CC(=O)O)cc1 (centres unmarked)", "42.5% of total injected dose"),
    ("CC(=O)NC(CCCCNC(=S)Nc1ccc(CC(CN(CC(=O)O)CC(=O)O)N(CC(=O)O)CC(=O)O)cc1)C(N)=O (centres unmarked)", "16.3% of total injected dose"),
]

*Q* Quick check: URINE of O=C(O)CN(CC(=O)O)CC(Cc1ccc(NC(=S)NCc2ccccc2)cc1)N(CC(=O)O)CC(=O)O (centres unmarked) ?
*A* 8.4% of total injected dose

----------
# Tested on: T-380 tumors
# Measurement description: Hapten biodistribution, premix protocol with bifunctional antibody ECH037.2
# Format: in vivo, nude mice
# Run parameters: 24 hours; premix with 20 µg ECH037.2; ratio
Value kind: TUMOR/BLOOD

# Compound, Target system, Observed measurement
records = [
    ("CC(=O)NC(CCCCNC(=S)Nc1ccc(CC(CN(CC(=O)O)CC(=O)O)N(CC(=O)O)CC(=O)O)cc1)C(N)=O (stereo not shown) [BALTUBE]", "T-380 tumors", 1.18),
    ("O=C(O)Cc1ccc(NC(=S)Nc2ccc(CC(CN(CC(=O)O)CC(=O)O)N(CC(=O)O)CC(=O)O)cc2)cc1 (stereo not shown) [PHATUBE]", "T-380 tumors", 1.35),
    ("O=C(O)CCCNC(=S)Nc1ccc(CC(CN(CC(=O)O)CC(=O)O)N(CC(=O)O)CC(=O)O)cc1 (stereo not shown) [BATUBE]", "T-380 tumors", 0.97),
    ("CCCCNC(=S)Nc1ccc(CC(CN(CC(=O)O)CC(=O)O)N(CC(=O)O)CC(=O)O)cc1 (stereo not shown) [BUTUBE]", "T-380 tumors", 0.59),
    ("O=C(O)CCNC(=S)Nc1ccc(CC(CN(CC(=O)O)CC(=O)O)N(CC(=O)O)CC(=O)O)cc1 (stereo not shown) [PATUBE]", "T-380 tumors", 0.87),
]

A = O=C(O)CN(CC(=O)O)CC(Cc1ccc(NC(=S)Nc2ccccc2)cc1)N(CC(=O)O)CC(=O)O (stereo not shown) [PHTUBE]
B = O=C(O)CN(CC(=O)O)CC(Cc1ccc(NC(=S)NCc2ccccc2)cc1)N(CC(=O)O)CC(=O)O (stereo not shown) [BETUBE]
*Q* Select one. Lower TUMOR/BLOOD: A or B Indicate your choice by writing its label.
*A* B

P = O=C(O)CN(CC(=O)O)CC(Cc1ccc(NC(=S)NCCO)cc1)N(CC(=O)O)CC(=O)O (stereo not shown) [EOTUBE]
Q = O=C(O)CCCC(=O)NCCNC(=S)Nc1ccc(CC(CN(CC(=O)O)CC(=O)O)N(CC(=O)O)CC(=O)O)cc1 (stereo not shown) [GNUBE]
*Q* Select one. Lower TUMOR/BLOOD: P or Q Indicate your choice by writing its label.
*A* Q
(Q: 0.70, P: 1.34)

----------
# System: T-380 tumors
# Measurement description: Hapten biodistribution, premix protocol with bifunctional antibody ECH037.2
# Format: in vivo, nude mice
# Run parameters: 48 hours; premix with 20 µg ECH037.2
Value kind: % DOSE PER GRAM, LIVER (% DOSE PER GRAM)

Worked examples follow.
# Compound, Value kind, Unit annotation, Observed measurement
measured = [
    ("O=C(O)CN(CC(=O)O)CC(Cc1ccc(NC(=S)NCCO)cc1)N(CC(=O)O)CC(=O)O (stereo not drawn) [EOTUBE]", "% DOSE PER GRAM, LIVER", "% DOSE PER GRAM", 3.1),
    ("O=C(O)CCCC(=O)NCCNC(=S)Nc1ccc(CC(CN(CC(=O)O)CC(=O)O)N(CC(=O)O)CC(=O)O)cc1 (stereo not drawn) [GNUBE]", "% DOSE PER GRAM, LIVER", "% DOSE PER GRAM", 2.4),
    ("O=C(O)CN(CC(=O)O)CC(Cc1ccc(NC(=S)Nc2ccccc2)cc1)N(CC(=O)O)CC(=O)O (stereo not drawn) [PHTUBE]", "% DOSE PER GRAM, LIVER", "% DOSE PER GRAM", 2.3),
    ("CC(=O)NC(CCCCNC(=S)Nc1ccc(CC(CN(CC(=O)O)CC(=O)O)N(CC(=O)O)CC(=O)O)cc1)C(N)=O (stereo not drawn) [BALTUBE]", "% DOSE PER GRAM, LIVER", "% DOSE PER GRAM", 2.2),
    ("O=C(O)CCCNC(=S)Nc1ccc(CC(CN(CC(=O)O)CC(=O)O)N(CC(=O)O)CC(=O)O)cc1 (stereo not drawn) [BATUBE]", "% DOSE PER GRAM, LIVER", "% DOSE PER GRAM", 2.0),
    ("CCNC(=S)Nc1ccc(CC(CN(CC(=O)O)CC(=O)O)N(CC(=O)O)CC(=O)O)cc1 (stereo not drawn) [ETUBE]", "% DOSE PER GRAM, LIVER", "% DOSE PER GRAM", 2.4),
    ("NCCNC(=S)Nc1ccc(CC(CN(CC(=O)O)CC(=O)O)N(CC(=O)O)CC(=O)O)cc1 (stereo not drawn) [NUBE]", "% DOSE PER GRAM, LIVER", "% DOSE PER GRAM", 1.9),
]

a = O=C(O)CN(CC(=O)O)CC(Cc1ccc(NC(=S)NCc2ccccc2)cc1)N(CC(=O)O)CC(=O)O (stereo not drawn) [BETUBE]
b = CCCCCCCCNC(=S)Nc1ccc(CC(CN(CC(=O)O)CC(=O)O)N(CC(=O)O)CC(=O)O)cc1 (stereo not drawn) [OTUBE]
*Q* Select one. Lower % DOSE PER GRAM, LIVER: a or b Indicate your choice by writing its label.
*A* b
